Target: E. coli GroEL/ES (Escherichia coli, UniProt P0A6F5)
Sequence (P0A6F5 whole entry, looked up): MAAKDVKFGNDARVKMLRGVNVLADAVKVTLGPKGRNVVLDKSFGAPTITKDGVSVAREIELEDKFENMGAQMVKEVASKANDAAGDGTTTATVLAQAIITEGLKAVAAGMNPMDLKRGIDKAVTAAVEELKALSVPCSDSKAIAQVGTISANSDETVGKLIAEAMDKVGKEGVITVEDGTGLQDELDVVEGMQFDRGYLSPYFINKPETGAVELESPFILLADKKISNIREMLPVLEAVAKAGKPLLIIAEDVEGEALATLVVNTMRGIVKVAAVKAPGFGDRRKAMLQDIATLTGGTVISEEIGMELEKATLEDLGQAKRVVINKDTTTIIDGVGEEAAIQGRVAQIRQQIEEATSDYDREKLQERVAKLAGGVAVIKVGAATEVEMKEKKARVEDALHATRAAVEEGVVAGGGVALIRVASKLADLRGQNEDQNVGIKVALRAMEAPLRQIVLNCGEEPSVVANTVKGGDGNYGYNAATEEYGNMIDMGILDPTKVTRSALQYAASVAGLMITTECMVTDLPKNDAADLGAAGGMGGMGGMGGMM
Test: Inhibition of Escherichia coli GroEL/GroES using Escherichia coli GroEL expressed in Escherichia coli DH5alpha cells and Escherichia coli GroES expressed in Escherichia coli BL21(DE3) cells assessed as reduction in native refolded rhodanese-mediated thiocyanate production by micro plate reader analysis
Listed next: entries and their corresponding pIC50.
The quantity pIC50 is defined as the negative base-10 logarithm of the molar concentration.

O=C(CC1Nc2cccc3cccc(c23)NC1=O)Nc1cccc([N+](=O)[O-])c1 (configuration not stated); 5.00
O=C1/C(=C/c2ccc(O)c(O)c2)SC(=S)N1c1ccc(O)cc1; 4.85
O=C(/C=C/c1ccc([N+](=O)[O-])cc1)c1ccc(O)c(O)c1; 4.92
CNC(=O)Nc1ccc2nc(-c3ccco3)c(-c3ccco3)nc2c1; 5.60
COc1ccc(C(=O)N/N=C/c2ccc(O)c3ncccc23)cc1; 4.28
CNC(=O)Oc1c(Br)cc2sc(=O)oc2c1Br; 5.28

In plain terms, COc1cccc(/C=C2/SC(=S)N(CCC(=O)Nc3ccc(O)cc3)C2=O)c1 has a documented pIC50 of 4.92

* * *

Biological target: E. coli GroEL/ES (Escherichia coli, UniProt P0A6F5)
Experiment: Inhibition of Escherichia coli GroEL/GroES using Escherichia coli GroEL expressed in Escherichia coli DH5alpha cells and Escherichia coli GroES expressed in Escherichia coli BL21(DE3) cells assessed as reduction in native refolded rhodanese-mediated thiocyanate production by micro plate reader analysis
READOUT_LABEL: IC50 (µM)
Provide the reading as a plain figure in µM.

O=C(NCCO)Nc1ccc2nc(-c3ccco3)c(-c3ccco3)nc2c1; 1.4
O=C(Nc1ccc2nc(-c3ccco3)c(-c3ccco3)nc2c1)N1CCCC1; 2.1

Here is another molecule to look at.
According to the records, this molecule COC(=O)c1ccc(-c2ccc(/C=C3/SC(=S)NC3=O)o2)cc1 displays IC50 of 8.1

* * *

Target: HSP60/HSP10 (Homo sapiens)
Sequence (P10809 whole entry): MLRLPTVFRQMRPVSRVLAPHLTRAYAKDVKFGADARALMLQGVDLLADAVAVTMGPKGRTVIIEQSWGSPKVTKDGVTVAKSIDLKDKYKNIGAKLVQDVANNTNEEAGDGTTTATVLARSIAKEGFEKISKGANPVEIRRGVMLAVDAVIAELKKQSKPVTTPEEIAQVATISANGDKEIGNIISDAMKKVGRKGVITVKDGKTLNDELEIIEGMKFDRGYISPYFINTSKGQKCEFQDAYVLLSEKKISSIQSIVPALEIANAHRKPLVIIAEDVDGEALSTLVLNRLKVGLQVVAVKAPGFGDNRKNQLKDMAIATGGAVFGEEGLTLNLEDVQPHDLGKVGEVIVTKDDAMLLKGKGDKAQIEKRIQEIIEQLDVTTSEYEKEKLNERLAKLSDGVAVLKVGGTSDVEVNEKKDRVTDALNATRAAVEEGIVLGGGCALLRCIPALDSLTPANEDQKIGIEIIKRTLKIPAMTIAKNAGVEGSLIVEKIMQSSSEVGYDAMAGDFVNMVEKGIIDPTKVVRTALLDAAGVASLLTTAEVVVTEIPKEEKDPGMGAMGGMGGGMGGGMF
Sequence (P61604 whole entry, further chain): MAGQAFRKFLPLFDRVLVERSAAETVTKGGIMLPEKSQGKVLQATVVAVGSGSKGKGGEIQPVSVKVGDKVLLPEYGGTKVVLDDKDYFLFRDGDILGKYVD
Assay: Inhibition of human HSP60/HSP10 expressed in Escherichia coli Rosetta2(DE3) cells assessed as inhibition of denatured pig heart MDH refolding by measuring reduction in NADH production incubated for 60 mins by micro plate reader analysis
Listed here: items and their measured pIC50.
# log scale: pIC50 equals minus log10 of the concentration in mol/L

Solved entries:
COc1cccc(/C=C2/SC(=S)N(CCC(=O)Nc3ccc(O)cc3)C2=O)c1; 4.89
Cc1ccc(S(=O)(=O)Nc2ccc(-c3nc4ccc(NS(=O)(=O)c5ccc(C)cc5)cc4[nH]3)cc2)cc1; 4.05

Field pIC50 (system: HSP60/HSP10 (Homo sapiens)) for entry CNC(=O)Oc1c(Br)cc2sc(=O)oc2c1Br = 5.74

* * *

Test system: Acinetobacter baumannii
Experiment: Antibacterial activity against multidrug resistant Acinetobacter baumannii 2208 (ATCC 19606) assessed as reduction in bacterial growth incubated for 6 to 8 hrs
Format: functional
pEC50: −log10 of the molar value.
Collected pEC50 values appear next to each entry.

CN[C@@H]1[C@H](O[C@H]2[C@H](O[C@H]3[C@H](O)[C@@H](O)[C@H](N=C(N)N)[C@@H](O)[C@@H]3N=C(N)N)O[C@@H](C)[C@]2(O)C=O)O[C@@H](CO)[C@H](O)[C@H]1O [STREPTOMYCIN]; < 4.00
COc1ccc(C(=O)N/N=C/c2ccc(O)c3ncccc23)cc1; 4.49

Summary for this compound, CC(=O)c1cc2c(cc1NC(=O)c1ccccc1Br)OCCO2 : pEC50 is < 4.00

Given item Cn1c(=O)c(C(=O)Nc2ccncc2)c(O)c2ccccc21 , the value recorded as its pEC50 is < 4.00

So, CCCCCCCCCC(=O)N[C@@H](Cc1c[nH]c2ccccc12)C(=O)N[C@@H](CC(N)=O)C(=O)N[C@@H](CC(=O)O)C(=O)N[C@@H]1C(=O)NCC(=O)N[C@@H](CCCN)C(=O)N[C@@H](CC(=O)O)C(=O)N[C@H](C)C(=O)N[C@@H](CC(=O)O)C(=O)NCC(=O)N[C@H](CO)C(=O)N[C@@H]([C@H](C)CC(=O)O)C(=O)N[C@@H](CC(=O)c2ccccc2N)C(=O)O[C@@H]1C [DAPTOMYCIN] ? Its pEC50 was < 4.00

The compound identified as CC1(C)S[C@@H]2[C@H](NC(=O)[C@H](N)c3ccccc3)C(=O)N2[C@H]1C(=O)O [AMPICILLIN] registered its pEC50 at 5.60

Lab note: O=C1/C(=C/c2ccc(O)c(O)c2)SC(=S)N1c1ccc(O)cc1 gave pEC50 of 4.24

For this compound ( Cc1ccc(S(=O)(=O)Nc2ccc(-c3nc4ccc(NS(=O)(=O)c5ccc(C)cc5)cc4[nH]3)cc2)cc1 ), measured pEC50 is < 4.00

response.value for COC(=O)c1ccc(-c2ccc(/C=C3/SC(=S)NC3=O)o2)cc1 (field: pEC50) = < 4.00

Per the record, O=c1c([N+](=O)[O-])c(Cl)c2ccccc2n1Cc1ccccc1 has pEC50 of < 4.00

Sure, the documented pEC50 for CN(C)c1ccc(O)c2c1C[C@H]1C[C@H]3[C@H](N(C)C)C(O)=C(C(N)=O)C(=O)[C@@]3(O)C(O)=C1C2=O [MINOCYCLINE] is > 7.30

Input O=C(N[C@H](CO)[C@H](O)c1ccc([N+](=O)[O-])cc1)C(Cl)Cl [CHLORAMPHENICOL] . Output pEC50: 4.19

So for CN[C@@H](CC(C)C)C(=O)N[C@H]1C(=O)N[C@@H](CC(N)=O)C(=O)N[C@H]2C(=O)N[C@H]3C(=O)N[C@H](C(=O)N[C@@H](C(=O)O)c4cc(O)cc(O)c4-c4cc3ccc4O)[C@H](O)c3ccc(c(Cl)c3)Oc3cc2cc(c3O[C@H]2O[C@@H](CO)[C@H](O)[C@@H](O)[C@@H]2O[C@@H]2C[C@@](C)(N)[C@@H](O)[C@@H](C)O2)Oc2ccc(cc2Cl)[C@H]1O , the logged pEC50 turned out to be 4.77

Lookup result for O=C(/C=C/c1cccc([N+](=O)[O-])c1)c1ccc(NC(=O)c2ccco2)cc1 ; measured pEC50: < 4.00

The reported pEC50 of the compound CNC(=O)Nc1ccc2nc(-c3ccco3)c(-c3ccco3)nc2c1 was < 4.00

Entry under test: COc1cc(/C=C2/C(=N)N3N=C(CC(C)C)SC3=NC2=O)ccc1OC(=O)c1ccc(F)cc1 . Its pEC50 was < 4.00

The value of pEC50 measured for the compound COc1cccc(/C=C2/SC(=S)N(CCC(=O)Nc3ccc(O)cc3)C2=O)c1 turned out to be < 4.00
